# Test Method Notes: clinical
# Test Conditions: human, plasma, oral, 300 mg, ABC Cmax, median, <18 years (n = 15), 300 mg twice daily
Parameter Measured: Cmax (ng/mL)

{"Mol Smiles": "Nc1nc(NC2CC2)c2ncn([C@H]3C=C[C@@H](CO)C3)c2n1", "Observed Measurement": 2580}

###

# Test Method Notes: clinical
# Test Conditions: human, plasma, oral, 300 mg, ABC Cmax, median, ≥18 years (n = 15), 300 mg twice daily
Parameter Measured: Cmax (ng/mL)

{"Mol Smiles": "Nc1nc(NC2CC2)c2ncn([C@H]3C=C[C@@H](CO)C3)c2n1", "Observed Measurement": 2740}

###

# Test Method Notes: clinical
# Test Conditions: human, plasma, oral, 300 mg, ABC half-life, median, Total (n = 30), 300 mg twice daily
Parameter Measured: half-life (h)

{"Molecule": "Nc1nc(NC2CC2)c2ncn([C@H]3C=C[C@@H](CO)C3)c2n1 [ABC, abacavir]", "Observed Measurement": 1.23}

###

# Test Method Notes: clinical
# Test Conditions: human, plasma, oral, 300 mg, ABC AUC, mean (SD), <18 years (n = 15), 300 mg twice daily

{"Compound": "Nc1nc(NC2CC2)c2ncn([C@H]3C=C[C@@H](CO)C3)c2n1 [ABC, abacavir]", "AUC (ng·h/mL)": 7350}

###

# Test Method Notes: clinical
# Test Conditions: human, plasma, oral, 300 mg, ABC half-life, mean (SD), ≥18 years (n = 15), 300 mg twice daily
Parameter Measured: half-life (h)

{"Compound": "Nc1nc(NC2CC2)c2ncn([C@H]3C=C[C@@H](CO)C3)c2n1 [ABC, abacavir]", "Units Symbol": "h", "Observed Measurement": 1.14}

###

# Test Method Notes: clinical
# Test Conditions: human, plasma, oral, 300 mg, ABC AUC, mean (SD), Total (n = 30), 300 mg twice daily
Parameter Measured: AUC (ng·h/mL)

{"Mol Smiles": "Nc1nc(NC2CC2)c2ncn([C@H]3C=C[C@@H](CO)C3)c2n1", "Parameter Measured": "AUC", "Units Symbol": "ng·h/mL", "Observed Measurement": 7480}

###

# Test Method Notes: clinical
# Test Conditions: human, plasma, oral, 300 mg, ABC half-life, mean (SD), <18 years (n = 15), 300 mg twice daily

{"Mol Smiles": "Nc1nc(NC2CC2)c2ncn([C@H]3C=C[C@@H](CO)C3)c2n1", "half-life, min": 73.8}

###

# Test Method Notes: clinical
# Test Conditions: human, plasma, oral, 300 mg, ABC AUC, median, <18 years (n = 15), 300 mg twice daily

{"Molecule": "Nc1nc(NC2CC2)c2ncn([C@H]3C=C[C@@H](CO)C3)c2n1 [ABC, abacavir]", "AUC": "7010 ng·h/mL"}

###

# Test Method Notes: clinical
# Test Conditions: human, plasma, oral, 300 mg, ABC Cmax, mean (SD), Total (n = 30), 300 mg twice daily
Parameter Measured: Cmax

{"Mol Smiles": "Nc1nc(NC2CC2)c2ncn([C@H]3C=C[C@@H](CO)C3)c2n1", "Observed Measurement": "2860 ng/mL"}

###

# Test Method Notes: clinical
# Test Conditions: human, plasma, oral, 300 mg, ABC Cmax, mean (SD), <18 years (n = 15), 300 mg twice daily
Parameter Measured: Cmax

{"Mol Smiles": "Nc1nc(NC2CC2)c2ncn([C@H]3C=C[C@@H](CO)C3)c2n1", "Parameter Measured": "Cmax", "Observed Measurement": "2790 ng/mL"}
